Attribution: PubChem BioAssay AID449762

# procedure-summary: M. tuberculosis growth inhibition, HTS (AID 449762);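 further: bacterial growth assessed after seven days of incubation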
# condition-description: M. tuberculosis H37Rv growth inhibition, 7H9 media; at 25 µM; active compounds read high
The whole screen tested about 330,000 compounds, of which about 1,900 (0.58%) were called active. Inconclusive results (about 4%) are left out. A selection follows. Potency and affinity values are given separately.

{"columns": ["compound", "inhibition [%]"],
 "data": [
  ["COc1cccc(C2=NN(C(=O)c3ccc(C)o3)C(O)(C(F)(F)F)C2)c1 (configuration not stated)", 3.82],
  ["COc1ccc(S(=O)(=O)N2CCN(CC(=O)Nc3ccccc3OC)CC2)cc1", 5.95],
  ["Cn1c(-c2cccc(Br)c2)cnc1NCc1ccccc1O", 42.5],
  ["CC(=O)Nc1ccc(NC(=O)C(C)OC(=O)c2cc(S(=O)(=O)N(C)C)ccc2N2CCCC2)cc1 (configuration not stated)", 1.92],
  ["COc1ccc(N(CC(=O)NC2CCCCC2)C(=O)CNC(=O)c2cccs2)cc1OC", -4.95],
  ["O=C(O)c1cccc(NC(=O)c2cc(S(=O)(=O)N3CCOCC3)cs2)c1", -7.54],
  ["NNC(=S)NCc1ccco1", -5.28],
  ["O=[N+]([O-])c1ccc2c(c1)oc1ccccc12", -7.51],
  ["Clc1ccc(-c2nnc(Sc3nc4ccccc4o3)c3ccccc23)cc1", -4.13],
  ["CCn1c(O)c(N=Nc2cccc(S(=O)(=O)N3CCOCC3)c2)c(=O)n(CC)c1=S", -2.11],
  ["CCOC(=O)c1sc(=NC(=O)c2ccc(C)c(C)c2)n(C)c1C", 31.6],
  ["COc1ccccc1C(=O)Nc1ccc(Cc2ccncc2)cc1", -0.58],
  ["NNC(=O)c1cc(-c2cccs2)nc2ccccc12", 9.4],
  ["CC(C)(C)c1ccc(C(=O)N2CCN(Cc3ccccc3)CC2)cc1", 4.6],
  ["CCCNC(=S)Nc1ccc(Oc2ccccc2)cc1", -11],
  ["CCOC(=O)N1CCC(NC(=O)c2cc(COc3ccccc3SC)on2)CC1", 1.54],
  ["COc1cccc(C(=O)NC2CC3CCCC(C2)N3CC(=O)Nc2ccccc2)c1 (configuration not stated)", 46.8],
  ["CCCN(CC(=O)Nc1ccccc1OC)C(=O)c1ccccn1", 0.49],
  ["CCCNC(=S)Nc1ccccc1", 0.1],
  ["O=C(C1CC(=O)N(c2ccc3c(c2)OCCO3)C1)N1CCN(Cc2ccccc2F)CC1 (configuration not stated)", -2.42],
  ["CCCCCCc1nc(C(N)=O)c2[nH]c(=O)n(-c3ccc(OC)cc3OC)c2n1", 7.81],
  ["Cc1nn(-c2ccc(F)cc2)c2nc(N)c(C#N)c(-c3ccc(O)c(O)c3)c12", 1.53],
  ["Cc1ccc(/C=C/C(=O)OCC(=O)NCCc2ccc(S(N)(=O)=O)cc2)o1", -0.03],
  ["CCn1c(=O)c2c(nc3n2CCCN3CCc2ccccc2)n(C)c1=O", 6.27],
  ["Cc1cccc(NC(=S)Nc2ccccn2)c1", -7.66],
  ["Cc1cccc(NC(=O)Cn2nnc(-c3cccs3)n2)c1C", 4.16],
  ["COc1cc(-c2c(C#N)c(=O)[nH]c3c2c(C)nn3-c2ccccc2)ccc1O", 51.3],
  ["COc1cc(/C=N/Nc2nc(Nc3ccccc3)nc(N3CCCCC3)n2)ccc1OCC(=O)O", 58.2],
  ["CCc1ccc(/C=C2/SC(=S)N(CCC(=O)NCCCN3CCOCC3)C2=O)cc1", -8.2],
  ["S=C(NCCNC(=S)Nc1ccccc1)Nc1ccccc1", -0.85],
  ["COc1ccc(NC(=S)Nc2ccccn2)cc1", -2.6],
  ["Cc1ccc(NC(=O)Nc2ccc3c(c2)CCC3)c(C)c1", -10.3],
  ["Cc1c(C(=O)N2CCOCC2)cc(C(C)(C)C)n1-c1ccccc1", -3.73],
  ["O=C(Nc1ccncc1)c1ccc(Cl)c(Cl)c1", 4.84],
  ["CCCc1nc2c(=O)[nH]c3ccccc3c2o1", -2.82],
  ["COc1cc2c(cc1O)CCN(C(=O)CSc1nncn1C)[C@@H]2C", -6.62],
  ["CCC(C)NC(=O)CNC(=S)N(Cc1ccccc1)Cc1cccnc1 (configuration not stated)", -7.33],
  ["Cn1c(-c2ccccc2)cnc1NCc1cc(Cl)ccc1O", 10.7],
  ["COC(=O)C1=C(C)N(C)C(=S)NC1c1c(OC)ccc2ccccc12 (configuration not stated)", 8.17],
  ["CCOC(=O)c1ccccc1C(=O)OCC", 7.16],
  ["Cc1ccc(N2C(=S)NC3c4cc(Cl)ccc4OC2(C)C3C(=O)N(C)C)cc1 (configuration not stated)", 0.53],
  ["CCCCc1nc2c(=O)[nH]c3ccccc3c2o1", -3.26]
]}

###

# procedure-summary: M. tuberculosis growth inhibition, HTS (AID 449762);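 further: bacterial growth assessed after seven days of incubation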
# condition-description: M. tuberculosis H37Rv growth inhibition, 7H9 media; at 25 µM; active compounds read high
Out of some 330,000 compounds screened, about 1,900 (0.58%) were called active. Inconclusive results (about 4%) are left out. Only a sample is shown. Entries with a potency or affinity are not part of this list.

{"columns": ["compound", "result-unit", "inhibition"],
 "data": [
  ["NC(=O)CC(NC(=O)Cc1ccc(Br)cc1)c1ccc(N2CCN(c3ccccn3)CC2)c([N+](=O)[O-])c1 (configuration not stated)", "%", 2.89],
  ["O=S(=O)(NCc1ccco1)c1ccc2ccccc2c1", "%", 10.5],
  ["CCCNC(=O)c1ccccc1NC(=O)Nc1ccccc1C", "%", -3.01],
  ["CCOC(=O)N1CCN(C(=O)COC(=O)Cc2ccc(OC)cc2)CC1", "%", -5.2],
  ["CNC(=O)NC(=O)COC(=O)CCc1nc(=O)c2ccccc2n1C", "%", 2.07],
  ["O=C(NCCC1=CCCCC1)C1CCN(S(=O)(=O)c2ccccc2C(F)(F)F)CC1", "%", -3.46],
  ["COC(=O)c1[nH]c2cccc(OC)c2c1NC(=O)CN1CCN(c2cccc(OC)c2)C(C)C1 (configuration not stated)", "%", 52.6],
  ["c1cncc(-c2ccc3ncnc(NCc4cccs4)c3c2)c1", "%", 0.82],
  ["CC(C)Cc1nc2sc3c(=O)[nH]cnc3c2c2c1CCCC2", "%", 1.08],
  ["CCOC(=O)c1[nH]c2cc(OC)c(OC)cc2c1NC(=O)CN1CCN(c2ccc(OC)cc2)C(C)C1 (configuration not stated)", "%", -2.17],
  ["COc1nc(-c2ccccc2)cc(-c2ccccc2)n1", "%", 11.4],
  ["O=S(=O)(c1cccs1)n1cccn1", "%", 0.03],
  ["Cc1ccc(S(=O)(=O)Nc2ccnc3ccccc23)cc1", "%", -5.18],
  ["COc1cc([C@@H]2c3cc4c(cc3[C@H](O)[C@H]3COC(=O)[C@H]23)OCO4)cc(OC)c1OC", "%", -2.97],
  ["CC(C)Cc1nc2oc3c(NCC(C)O)ncnc3c2c2c1CCCC2 (configuration not stated)", "%", 2.05],
  ["O=C(CC1C(=O)NCCN1Cc1ccc(F)cc1)NCCCn1cccn1 (configuration not stated)", "%", -1],
  ["COc1ccc(N2CCc3c(C)nc(SC)nc32)cc1", "%", 37.6],
  ["CCOC(=O)c1c(C)n(C)c2ccc(OCC(O)CNCCc3ccccc3)cc12 (configuration not stated)", "%", 15.2],
  ["Cc1nc2ccc(N=NC3=C(O)CC(C)(C)CC3=O)cc2s1", "%", 1.45],
  ["Cc1cccc(N2CCN(C(=O)CCCn3c(=O)[nH]c4ccsc4c3=O)CC2C)c1 (configuration not stated)", "%", 6.71],
  ["O=C(CCNS(=O)(=O)c1ccccc1)N1CCN(C(c2ccccc2)c2ccccc2)CC1", "%", 4.06],
  ["C/C(=N\\NC(=O)c1ccc(Cn2cc([N+](=O)[O-])cn2)o1)c1cccc(NC(=O)c2cccnc2)c1", "%", -0.38],
  ["CSc1nc(C)c2c(n1)N(c1ccc(F)cc1)CC2", "%", 5.53],
  ["C/C=C1\\COC(C(=O)NCCCN2CCCC2=O)(C(F)(F)F)C=C1C=C(C)C (configuration not stated)", "%", 2.64],
  ["COc1ccc(Cl)cc1NC(=O)NCCN1CCNC1=O", "%", 0.11],
  ["COc1cc([C@@H]2c3cc4c(cc3[C@@H](OC)[C@H]3COC(=O)[C@H]23)OCO4)cc(OC)c1O", "%", -15.3],
  ["CC(C)c1onc(C(=O)N2CCN(c3ccccc3)CC2)c1[N+](=O)[O-]", "%", -4.37]
]}

###

# procedure-summary: M. tuberculosis growth inhibition, HTS (AID 449762);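 further: bacterial growth assessed after seven days of incubation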
# condition-description: M. tuberculosis H37Rv growth inhibition, 7H9 media; at 25 µM; active compounds read high
Screen size: about 330,000 compounds; about 1,900 (0.58%) were called active. Inconclusive results (about 4%) are left out. The list is a sample of the results. Entries with a potency or affinity are not part of this list.
Items are presented alongside their recorded inhibition.
value-type: inhibition (%)

{"columns": ["compound", "result-unit", "quantitative-readout"],
 "data": [
  ["COc1cccc2cc(C(=O)N(C)C3CCN(C)CC3)c(=O)oc12", "%", 2.2],
  ["CCOC(=O)c1[nH]c2ccc(F)cc2c1NC(=O)CCN1CCOCC1", "%", 7.04],
  ["Cc1ccc(/C=N/N2C(=O)C3C(C2=O)C2C=CC3C23CC3)o1 (stereo not given)", "%", -4.61],
  ["Cc1cnc(NC(=O)C2CCC(C(C)(C)C)CC2)s1 (stereo not given)", "%", -5.46],
  ["Cc1nc(-c2ccccc2)sc1C(=O)CSc1ccc(Cl)cc1", "%", -5.11],
  ["CCCCc1c(O)nc(SCC(=O)N2CCCCC2)[nH]c1=O", "%", 17.7],
  ["COc1ccc2c(c1)c(C(C)=O)c(C)n2CCc1ccccc1", "%", -7.55],
  ["O=C(CSc1nnnn1-c1ccc2c(c1)OCCO2)N1CCc2ccccc21", "%", 5.18],
  ["O=c1cc(O)nc(SCc2ccc(Cl)cc2)[nH]1", "%", -0.2],
  ["CCC(C)(C)NC(=O)C(C)OC(=O)c1nsc(Cl)c1Cl (stereo not given)", "%", -2.01],
  ["CC(=O)c1c(C)n(Cc2ccccc2)c2ccc(O)cc12", "%", -1.54],
  ["COc1ccc(CCNc2nc(N3CCOCC3)nc(N3CCOCC3)n2)cc1OC", "%", -5.04],
  ["N/C(=N\\OC(=O)Nc1ccc(Cl)cc1)c1ncc(C(F)(F)F)cc1Cl", "%", 3.09],
  ["Nc1cc(N2CCCCCC2)c2nonc2c1[N+](=O)[O-]", "%", -8.43],
  ["O=C(c1ccccc1)c1ccc(OCCCCN2CCCCC2)cc1", "%", 3.79]
]}
